These entries and their values trace back to ChEMBL document CHEMBL1136930.

Tested on: CCRF-CEM
Assay: Cytostatic activity against wild type human CEM cells
Type: cell-based
Details: ccrf-cem
Form field: CC50 (one value per entry).
parameter.measured: CC50 (µM)

1. Cc1cn([C@H]2C=C[C@@H](COP3(=O)OCc4cc(-c5cc6c(c(C(C)(C)C)c5)OP(=O)(OC[C@@H]5C=C[C@H](n7cc(C)c(=O)[nH]c7=O)O5)OC6)cc(C(C)(C)C)c4O3)O2)c(=O)[nH]c1=O (single isomer, unassigned; form 1)
18
2. Cc1cn([C@H]2C=C[C@@H](COP3(=O)OCc4cc(-c5ccc6c(c5)COP(=O)(OC[C@@H]5C=C[C@H](n7cc(C)c(=O)[nH]c7=O)O5)O6)ccc4O3)O2)c(=O)[nH]c1=O (single isomer, unassigned; form 2)
78
3. Cc1cn([C@H]2C=C[C@@H](COP3(=O)OCc4cc(-c5ccc6c(c5)COP(=O)(OC[C@@H]5C=C[C@H](n7cc(C)c(=O)[nH]c7=O)O5)O6)ccc4O3)O2)c(=O)[nH]c1=O (single isomer, unassigned; form 1)
107
4. Cc1cn([C@H]2C=C[C@@H](COP3(=O)OCc4cc(-c5cc6c(c(C(C)(C)C)c5)OP(=O)(OC[C@@H]5C=C[C@H](n7cc(C)c(=O)[nH]c7=O)O5)OC6)cc(C(C)(C)C)c4O3)O2)c(=O)[nH]c1=O (single isomer, unassigned; form 2)
19
